Assay: 28-day repeat-dose oral toxicokinetics
Type: in vivo, CD-1 mouse
Conditions: both sexes, CD-1, mouse, plasma, po, 1 g/kg, 1.0 g/kg/dose BID, Day 28, Mean of sexes
readout: Cmax (µg/mL)
# number only, unit µg/mL dropped from output

Query :: I'd like to know its Cmax. The molecule in question is "OC[C@@H](O)[C@@H](O)[C@@H](O)CO"
Result :: 245

----------
Test: 28-day repeat-dose oral toxicokinetics
Assay type: in vivo, Bama minipig
Conditions: male, Bama, minipig, plasma, po, 0.3 g/kg, 0.3 g/kg/dose BID, Day 1, Male; mean ± SD; read-out: Cmax
readout: Cmax (µg/mL)
The reply should contain only the number, in µg/mL.

Query :: State the recorded Cmax for this entry: "OC[C@@H](O)[C@@H](O)[C@@H](O)CO"
Result :: 104

----------
Test: 28-day repeat-dose oral toxicokinetics
Assay type: in vivo, Bama minipig
Conditions: female, Bama, minipig, plasma, po, 0.3 g/kg, 0.3 g/kg/dose BID, Day 28, Female; mean ± SD; read-out: Cmax
readout: Cmax (µg/mL)
Number only, in µg/mL; omit the unit.

Query :: Given the compound OC[C@@H](O)[C@@H](O)[C@@H](O)CO [ribitol, (2R,3s,4S)-Pentane-1,2,3,4,5-pentol] , what is its reported Cmax?
Result :: 139

----------
Assay: Metabolic stability in liver microsomes, cytosol, hepatocytes
Type: in vitro ADME
Conditions: Sprague-Dawley, rat, primary hepatocytes, Hepatocytes
readout: CLint scaled at 10 μM

Query :: Using the record for OC[C@@H](O)[C@@H](O)[C@@H](O)CO [ribitol, (2R,3s,4S)-Pentane-1,2,3,4,5-pentol] , report its CLint scaled at 10 μM.
Result :: < 8.89 mL/min/kg

----------
Assay: 7-day repeat-dose oral toxicokinetics
Format: in vivo, CD-1 mouse
Details: female, CD-1, mouse, plasma, po, 0.5 g/kg, 0.5 g/kg/dose BID, Day 7, F; read-out: AUC0-24
readout: AUC(0-t) (µg·h/mL)
Kindly answer with a numeric value in µg·h/mL, unit omitted.

Query :: # AUC(0-t) lookup, item "OC[C@@H](O)[C@@H](O)[C@@H](O)CO"
Result :: 218

----------
Assay: 28-day repeat-dose oral toxicokinetics
Format: in vivo, Bama minipig
Conditions: male, Bama, minipig, plasma, po, 0.1 g/kg, 0.1 g/kg/dose BID, Day 1, Male; median (range)
readout: Tmax
Give the number first and the unit second.

Query :: Entry "OC[C@@H](O)[C@@H](O)[C@@H](O)CO" has what Tmax?
Result :: 6.8 h

----------
Assay: 7-day repeat-dose oral toxicokinetics
Assay type: in vivo, CD-1 mouse
Conditions: female, CD-1, mouse, plasma, po, 0.5 g/kg, 0.5 g/kg/dose BID, Day 7, F
readout: Cmax (µg/mL)
Hi! Could you send only the number? It should be in µg/mL, unit omitted.

Query :: Form field: reported Cmax of OC[C@@H](O)[C@@H](O)[C@@H](O)CO [ribitol, (2R,3s,4S)-Pentane-1,2,3,4,5-pentol]
Result :: 100

----------
Assay: PK comparison QD, BID, TID oral dosing
Format: in vivo
Settings: female, CD-1, mouse, plasma, po, 0.3 g/kg, PO 0.3 g/kg QD
readout: half-life (h)
Entry rule: numbers only, all in h.

Query :: // returns reported half-life for input OC[C@@H](O)[C@@H](O)[C@@H](O)CO [ribitol, (2R,3s,4S)-Pentane-1,2,3,4,5-pentol]
Result :: 1.17

----------
Assay: 28-day repeat-dose oral toxicokinetics
Format: in vivo, CD-1 mouse
Settings: male, CD-1, mouse, plasma, po, 1 g/kg, 1.0 g/kg/dose BID, Day 1, Male
readout: Tmax (h)
Expressed in h, but write only the number.

Query :: Form field: reported Tmax of "OC[C@@H](O)[C@@H](O)[C@@H](O)CO"
Result :: 8.5

----------
Experiment: 28-day repeat-dose oral toxicokinetics
Assay type: in vivo, Bama minipig
Conditions: female, Bama, minipig, plasma, po, 0.1 g/kg, 0.1 g/kg/dose BID, Day 1, Female; mean ± SD; read-out: AUC0-24
readout: AUC(0-t) (µg·h/mL)
Just the number in µg·h/mL, nothing appended.

Query :: Please look up its AUC(0-t): OC[C@@H](O)[C@@H](O)[C@@H](O)CO [ribitol, (2R,3s,4S)-Pentane-1,2,3,4,5-pentol]
Result :: 268

----------
Experiment: Single oral dose PK
Assay type: in vivo
Conditions: Bama, minipig, plasma; single PO 0.3 g/kg, male
readout: Cmax (µg/mL)
I only need the number, in µg/mL, no unit after it.

Query :: Which Cmax reading was recorded for the compound "OC[C@@H](O)[C@@H](O)[C@@H](O)CO" ?
Result :: 112

----------
Test: 28-day repeat-dose oral toxicokinetics
Assay type: in vivo, CD-1 mouse
Details: male, CD-1, mouse, plasma, po, 1.5 g/kg, 1.5 g/kg/dose BID (3.0 g/kg/day, NOAEL), Day 28, Male; read-out: AUC0-24
readout: AUC(0-t) (µg·h/mL)
API: value field is a number in µg·h/mL; no unit string.

Query :: I would be grateful if you could share the reported AUC(0-t) for "OC[C@@H](O)[C@@H](O)[C@@H](O)CO" .
Result :: 1340

----------
Assay: Phase 1 SAD/MAD study in healthy subjects
Type: in vivo, human
Conditions: human, in vivo, oral, 1.5 g, steady state, 6 days, 1.5 g once daily
Protocol: The study described below is a randomized, blinded, placebo-controlled, parallel group study of the administration of single ascending doses (SAD) and multiple ascending doses (MAD) of ribitol to healthy subjects. […] Up to a maximum of 6 cohorts will be enrolled. […] Once the informed consent form (ICF) is signed and eligibility criteria are determined, subjects will be admitted to the clinical research unit (CRU) 1 day prior to dosing (Day −1). […]
readout: Cmax (ng/mL)
Form entry: value (ng/mL) — number only.

Query :: Consider the molecule OC[C@@H](O)[C@@H](O)[C@@H](O)CO [ribitol, (2R,3s,4S)-Pentane-1,2,3,4,5-pentol] and give its measured Cmax.
Result :: 25000

----------
Assay: 28-day repeat-dose oral toxicokinetics
Assay type: in vivo, CD-1 mouse
Details: male, CD-1, mouse, plasma, po, 0.5 g/kg, 0.5 g/kg/dose BID, Day 28, Male; read-out: AUC0-24
Protocol: Toxicokinetics of ribitol was evaluated as part of the 28-day toxicology study in male and female CD-1 mice. […] Toxicokinetic animals were 12/sex in the control group and 48/sex/group in the treated groups. Blood samples were collected on Day 1 and Day 28 at pre-first dose, 0.5, 2, 4, 8 (prior to second dose), 8.5, 10, and 24 h.
readout: AUC(0-t)
In your response, the unit should come after the numeric value.

Query :: Reported AUC(0-t) for "OC[C@@H](O)[C@@H](O)[C@@H](O)CO" : what is it?
Result :: 450 µg·h/mL

----------
Assay: PK comparison QD, BID, TID oral dosing
Type: in vivo
Conditions: female, CD-1, mouse, plasma, po, 0.3 g/kg, PO 0.3 g/kg/dose TID, last dose
readout: half-life (min)
# unit: min | format: bare number

Query :: Would you mind telling me what half-life value was observed for "OC[C@@H](O)[C@@H](O)[C@@H](O)CO" ?
Result :: 31.8

----------
Experiment: Metabolic stability in liver microsomes, cytosol, hepatocytes
Assay type: in vitro ADME
Details: CD-1, mouse, primary hepatocytes, Hepatocytes
readout: half-life at 10 μM

Query :: Query: half-life at 10 μM; subject: "OC[C@@H](O)[C@@H](O)[C@@H](O)CO"
Result :: > 6.07 h

----------
Experiment: Single intravenous dose PK
Type: in vivo, Bama minipig
Settings: Bama, minipig, plasma; IV 100 mg/kg, female; read-out: T1/2 (converted)
readout: half-life

Query :: Could you share which half-life value was measured for "OC[C@@H](O)[C@@H](O)[C@@H](O)CO" ?
Result :: 59.6 min

----------
Test: 7-day repeat-dose oral toxicokinetics
Type: in vivo, Bama minipig
Settings: male, Bama, minipig, plasma, po, 0.3 g/kg, 0.3 g/kg BID, Day 1, M
Description: Toxicokinetics were evaluated as part of a 7-day oral repeat-dose dose range finding study in Bama minipigs. […] On Days 1 and 7, blood was taken for plasma TK at 0 (pre first dose), 0.5, 1, 2, 4, 6 (pre-second dose), 6.5, 7, 8, 10, and 24 hours post-first dose.
readout: Tmax (h)
Give the number; h is assumed, so skip it.

Query :: Which Tmax value is on record for "OC[C@@H](O)[C@@H](O)[C@@H](O)CO" ?
Result :: 6.5

----------
Assay: Single intravenous dose PK
Type: in vivo, CD-1 mouse
Settings: CD-1, mouse, plasma; IV 30 mg/kg, female
readout: AUC(0-inf) (ng·h/mL)
Output spec: scalar in ng·h/mL, unitless text.

Query :: Can you look up the measured AUC(0-inf) of "OC[C@@H](O)[C@@H](O)[C@@H](O)CO" for me?
Result :: 20100
